# measurement.notes: HILIC, Waters Atlantis Premier BEH Z-HILIC, 100 × 2.1 mm, 1.7 µm, 40 °C, 0.16 mL/min, estimated dead time 1.4 min; A: water + 20 mM ammonium carbonate + 5 µM medronic acid; B: 10% water + 90% acetonitrile + 2 mM ammonium carbonate + 0.5 µM medronic acid; gradient (min/%B) 0/97 18/55 18.1/20 21.5/20 22/97 23.5/97 25.5/97
# stated.conditions: stereoisomer not certain
Lab note: cut-off is 10 min. Strictly less in LC retention time is True. Exactly 10 min or more is False.

Past entries and their recorded results:
1. NC(=O)c1ccc[n+](C2OC(COP(=O)(O)OP(=O)(O)OCC3OC(n4cnc5c(N)ncnc54)C(O)C3O)C(O)C2O)c1 (configuration not stated) [NAD]; False
2. Nc1ncnc2c1ncn2C1OC(COP(=O)(O)OP(=O)(O)O)C(O)C1O (configuration not stated) [ADP]; False

Attention now turns to another entry.
I'd appreciate it if you could check whether NC(=O)C1=CN(C2OC(COP(=O)(O)OP(=O)(O)OCC3OC(n4cnc5c(N)ncnc54)C(O)C3O)C(O)C2O)C=CC1 (configuration not stated) [NADH] has LC retention time smaller than 10 min.
True
